Test system: SF-295 CNS
Test: NCI tumour cell line growth inhibition, 48 h
Where a SMILES comes first, the peptide text is derived from it. The star is where a group is joined. Boc = CC(C)(C)OC(=O)*; OBn = c1ccc(CO*)cc1
Assay metric: TGI

1) CC(C)CC(NC(=O)C(Cc1ccccc1)NC(=O)C(Cc1ccccc1)NC(=O)OC(C)(C)C)C(=O)OCc1ccccc1 (stereo not drawn) (Boc-Phe-Phe-Leu-OBn; configuration not given here) : > 100 µM
2) COc1ccc(-c2nnc(Nc3nc(O)c(C4=c5cc(F)ccc5=NC4=O)s3)o2)cc1 : > 100 µM
3) CN(C)Cc1cc(C(=O)/C=C/c2ccc(F)cc2)cc(CN(C)C)c1O : 31.6 µM
4) CCCCN1C(=O)CS/C1=N/Nc1nc2c([nH]1)c(=O)n(C)c(=O)n2C : 53.1 µM
5) Cc1[nH]c(=O)nc(N(CCO)/N=C/c2ccc(Cl)cc2)c1C(=O)Nc1ccc(Cl)cc1 : > 100 µM
6) Cc1ccc2c(CC(=O)O)cc(=O)oc2c1 : > 100 µM
7) C[C@]12CCc3sc(-c4cccc(F)c4)nc3C1=CC[C@@H]1[C@@H]2CC[C@]2(C)C(=O)CC[C@@H]12 : 4.91 µM
8) CC[C@H]1C=CCC[C@@]2(C[C@@H]3CC[C@@H]4[C@H](C(=O)OCCCCCCCCCCCCCCCC(=O)N(CCCNC(C)=O)C[C@H](CCNC(C)=O)OC(C)=O)[C@]5(CCC[C@@H](C)O5)NC(=[N+]34)N2)O1 : 1.46 µM
9) COc1ccc(Oc2cc(NCCC(F)(F)F)c3ncc(-c4ccc(C(=O)NC5CC5)c(C)c4)n3n2)c(F)c1F : > 65.3 µM
10) CCCCCCCCCCCCCCNCC(OCC)OCC : 30.6 µM
11) O=C1C=C2CC[C@H]3[C@@H]4CC[C@H](Oc5c6ccccc6nc6ccccc56)[C@H]4CC[C@@H]3[C@H]2CC1 : > 100 µM
12) CC(=O)C1=C(C)N(c2ccccc2)C2(O)C=CC(=O)C3=C(O)c4ccccc4C(=O)C312 (stereo not drawn) : 38.5 µM
13) C/C=C1\CCC2c3[nH]c4ccccc4c3CCN2C1 (stereo not drawn) : > 100 µM
14) NC(=O)C1CCCN1C(=O)N(CCCl)N=O (stereo not drawn) : > 100 µM
15) CC(=O)OC1[C@H](n2ccnc2)C[C@H]2[C@@H]3CC=C4CC(N5CCCC5)CC[C@]4(C)[C@H]3CC[C@]12C (stereo partly drawn) : 41 µM
16) CC(=O)OC1[C@@H](OC(C)=O)CN(OCc2ccccc2)C[C@H]1OC(C)=O (stereo partly drawn) : > 100 µM
17) S=C(c1c[nH]c2ccccc12)N1CCCCC1 : > 100 µM
18) Clc1cccc2c1OCC1C(c3ccccc3)=NN(c3ccccc3)C21 (stereo not drawn) : > 100 µM
19) NC(=O)C1N=NSC1NC(=O)c1ccc([N+](=O)[O-])cc1 (stereo not drawn) : > 100 µM
20) NC(N)=NS(=O)(=O)c1ccc(NC(=O)c2ccc3nc4ccccc4c(N)c3c2)cc1 : > 100 µM
21) Cc1cc(NS(=O)(=O)c2ccc(NC(=O)COC(=O)c3cccc4c(=O)c5ccccc5[nH]c34)cc2)no1 : > 100 µM
22) CCn1c(=O)c2c3cc(OC(C)=O)ccc3oc2c2ccc(OC(C)=O)cc21 : 72 µM
23) Cc1nnc([C@@]2(C)CC[C@H]3[C@@H](CCC4=CC(=O)CC[C@@]43C)[C@@H]2CC#N)o1 : > 100 µM
24) CC(C)N(/C(F)=N\C(=O)Nc1ccccc1C(F)(F)F)C(C)C : > 100 µM
25) O=S(=O)(O)c1ccccc1N=Nc1ccc(N=Nc2c(O)ccc3ccccc23)c(S(=O)(=O)O)c1 : > 100 µM
26) COC(=O)c1ccc(C)cc1CC1Cc2c(C)cccc2C1=O (stereo not drawn) : > 52.8 µM
27) COC1=CC(=O)NCCN1 : > 100 µM
28) Cc1cc(S(N)(=O)=O)c(S/C(=N\Nc2ccc([N+](=O)[O-])cc2)c2ccc3ccccc3c2)cc1Cl : 66.2 µM

// provenance: PubChem BioAssay (NCI)
